Cited source for all entries: ChEMBL document CHEMBL5252519

target: UniProtKB P43405
measure.name: IC50 (nM)

{"smiles.representation": "CC(C)(C)Nc1nc(Nc2ccc(CC(=O)O)cc2)nc2[nH]cnc12", "IC50 (nM)": 5}
{"smiles.representation": "C/C=N/Nc1ccc(Nc2nc(NCC)c3nc[nH]c3n2)cc1", "IC50 (nM)": 5}
{"smiles.representation": "CC(C)Nc1nc(Nc2ccc(S(=O)(=O)N(C)C)cc2)nc2[nH]cnc12", "IC50 (nM)": 5}
